Measurement target: UniProtKB Q9JIA2
Endpoint label: pKi
By convention, pKi is the negative base-10 log of a molar concentration.

pKi for `CNc1cc(OC)c(C(=O)NCCN(C)Cc2ccc(I)cc2)cc1Cl` ? 5.57

----------
Measurement target: UniProt:P23977
Sequence (P23977 whole entry): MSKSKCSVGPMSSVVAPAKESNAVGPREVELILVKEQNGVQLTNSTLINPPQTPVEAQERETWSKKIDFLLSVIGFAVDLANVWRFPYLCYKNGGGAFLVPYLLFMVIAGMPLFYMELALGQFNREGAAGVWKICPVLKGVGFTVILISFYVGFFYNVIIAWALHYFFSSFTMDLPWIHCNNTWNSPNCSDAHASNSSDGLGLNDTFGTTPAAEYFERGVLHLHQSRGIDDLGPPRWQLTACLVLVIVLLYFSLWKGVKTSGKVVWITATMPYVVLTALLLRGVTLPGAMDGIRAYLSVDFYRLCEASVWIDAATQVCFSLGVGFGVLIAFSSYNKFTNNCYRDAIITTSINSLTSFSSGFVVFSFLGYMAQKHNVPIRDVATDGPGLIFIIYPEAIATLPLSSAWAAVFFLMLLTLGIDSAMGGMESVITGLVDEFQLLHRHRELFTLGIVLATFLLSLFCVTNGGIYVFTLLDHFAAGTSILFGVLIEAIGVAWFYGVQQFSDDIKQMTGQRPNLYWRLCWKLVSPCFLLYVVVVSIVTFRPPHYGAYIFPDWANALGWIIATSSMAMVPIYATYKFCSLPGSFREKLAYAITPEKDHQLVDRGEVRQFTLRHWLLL
Endpoint label: pKi
Lab note — pKi values are minus log10 of concentrations in M.

Form: Entry = `CNc1cc(OC)c(C(=O)NCCN(C)Cc2ccc(I)cc2)cc1Cl` | System = UniProt:P23977 | pKi = ____ 6.68

----------
Measurement target: UniProtKB P14842
Sequence (P14842 whole entry): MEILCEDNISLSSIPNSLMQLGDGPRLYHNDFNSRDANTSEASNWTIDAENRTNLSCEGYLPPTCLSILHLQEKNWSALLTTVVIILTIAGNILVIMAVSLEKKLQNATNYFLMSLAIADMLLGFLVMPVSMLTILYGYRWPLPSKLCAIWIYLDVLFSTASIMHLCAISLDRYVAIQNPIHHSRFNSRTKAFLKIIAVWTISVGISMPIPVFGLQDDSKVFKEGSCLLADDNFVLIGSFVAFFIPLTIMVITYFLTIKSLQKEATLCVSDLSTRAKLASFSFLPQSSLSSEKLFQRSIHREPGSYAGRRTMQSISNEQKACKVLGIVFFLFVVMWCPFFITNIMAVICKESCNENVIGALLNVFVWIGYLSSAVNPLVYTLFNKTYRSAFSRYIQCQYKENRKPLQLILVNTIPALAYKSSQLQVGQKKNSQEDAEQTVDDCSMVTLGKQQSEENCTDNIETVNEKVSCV
Endpoint label: pKi
Scale: pKi equals -log10([C]), with [C] in mol/L.

Recorded pKi for `CNc1cc(OC)c(C(=O)NCCN(C)Cc2ccc(I)cc2)cc1Cl` with UniProtKB P14842, please? 5.75

meta.source: BindingDB's records for doi:10.1016/0024-3205(89)90523-7
